Assay: chemical genetic growth profiling, strain panel (AID 1159580);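 note: tested at 20 µM; growth read once vehicle control cultures reached saturation at 30 °C; 1 = growth at the plate median or of vehicle wells; lower values mean less growth of the strain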
Conditions: S. cerevisiae deletion strains, growth OD, locus YDR159W, strain sac3
The whole screen tested about 5,500 compounds, of which about 2,000 (36%) were called active. Not shown: some 18% with an inconclusive outcome. Cut-off read from the data, not from the text of the source: active = normalized growth mostly below about 0.91 (no sharp cut-off); inconclusive = no clear call, values can overlap the other calls; inactive = mostly above about 0.92. Some of the results follow.
One label from this list, please: active, inactive

Known results for molecules:
- smiles_code: "CN1CCN(CCC=C2c3ccccc3Sc3ccc(S(=O)(=O)N(C)C)cc32)CC1"
  assigned_class: "inactive"
- smiles_code: "O=C(OC[C@H]1O[C@H](OC(=O)c2cc(O)c(O)c(OC(=O)c3cc(O)c(O)c(O)c3)c2)[C@H](OC(=O)c2cc(O)c(O)c(OC(=O)c3cc(O)c(O)c(O)c3)c2)[C@@H](OC(=O)c2cc(O)c(O)c(OC(=O)c3cc(O)c(O)c(O)c3)c2)[C@@H]1OC(=O)c1cc(O)c(O)c(OC(=O)c2cc(O)c(O)c(O)c2)c1)c1cc(O)c(O)c(OC(=O)c2cc(O)c(O)c(O)c2)c1"
  assigned_class: "active"
- smiles_code: "COc1cnc(NS(=O)(=O)c2ccc(N)cc2)nc1"
  assigned_class: "inactive"

Prompt line: Fill in: this test's call for `CN1CCN(CCCN2c3ccccc3Sc3ccc(C(F)(F)F)cc32)CC1` is ___
Response line: active

Prompt line: Please indicate how the test categorized `CC[C@H]1OC(=O)[C@H](C)[C@@H](O[C@H]2C[C@@](C)(OC)[C@@H](O)[C@H](C)O2)[C@H](C)[C@@H](O[C@@H]2O[C@H](C)C[C@H](N(C)C)[C@H]2O)[C@](C)(O)C[C@@H](C)[C@@H]2N[C@@H](COCCOC)O[C@H]([C@H]2C)[C@]1(C)O` .
Response line: inactive

---

// values below are reported normalized growth
Experiment: chemical genetic growth profiling, strain panel (AID 1159580)
Details: S. cerevisiae deletion strains, growth OD, locus YDL101C, strain DUN1, active compounds read low
Hit rate of the full screen: of about 5,500 compounds, about 2,000 (36%) were called active. Roughly 18% stayed inconclusive and do not appear here. Some of the results follow.
Number only, no unit.

- compound: "OCCN1CCN(CCCN2c3ccccc3Sc3ccc(C(F)(F)F)cc32)CC1"
  normalized growth: 0.979

Prompt line: State the recorded normalized growth for this entry: `COc1cc2cc3c4cc(OC)c(OC)cc4cc[n+]3c(C)c2cc1OC`
Response line: 1.01

Prompt line: Could you tell me which normalized growth is on file for `COc1cc2nc(-c3cccs3)oc(=O)c2cc1OC` ?
Response line: 0.987

---

Assay: chemical genetic growth profiling, strain panel (AID 1159580);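 note: tested at 20 µM; growth read once vehicle control cultures reached saturation at 30 °C; 1 = growth at the plate median or of vehicle wells; lower values mean less growth of the strain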
Conditions: S. cerevisiae deletion strains, growth OD, locus YNL222W, strain SSU72, active compounds read low
About 2,000 (36%) of roughly 5,500 compounds were called active. About 18% were inconclusive and are not listed. Some of the results follow.
property_measured: normalized growth
# print the numeric value only

For orientation, consider the following solved cases.
- molecule: "CC(C)(C)c1ccc(C(=O)NNC(=S)Nc2ccc(Cl)cc2)cc1"
  property_measured: "normalized growth"
  val: 0.976
- molecule: "O=C(NNC(=S)Nc1ccc(Cl)cc1)c1ncc(C(F)(F)F)cc1Cl"
  property_measured: "normalized growth"
  val: 0.979

Prompt line: Entry COc1ccc(C2CC(c3ccc(C)cc3C)=NN2C(C)=O)cc1 (stereo not drawn) : reported normalized growth = ?
Response line: 0.991

Prompt line: Quick check: normalized growth of `S=C(Nc1ccc(Cl)cc1)Nc1ccc(Cl)cc1` ?
Response line: 0.936

Prompt line: Name the recorded normalized growth for CN1c2ccccc2C(C)(C)C12C=Cc1cc(O)ccc1O2 (stereo not drawn) .
Response line: 0.986

Prompt line: For the molecule `COc1cc(N2C(=O)C=CC2=O)cc(OC)c1OC` , what normalized growth is on record?
Response line: 0.943

Prompt line: Consider the molecule OC(CSc1ccccc1)CN1CCN(c2nc(-c3ccccc3)ns2)CC1 (stereo not drawn) and give its measured normalized growth.
Response line: 0.991

Prompt line: Item under review: `C/C(=N/NC(=O)c1ccc(C(C)(C)C)cc1)c1ccccc1O` . Reported normalized growth?
Response line: 0.976

---

Assay: chemical genetic growth profiling, strain panel (AID 1159580);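 note: tested at 20 µM; growth read once vehicle control cultures reached saturation at 30 °C; 1 = growth at the plate median or of vehicle wells; lower values mean less growth of the strain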
Settings: S. cerevisiae deletion strains, growth OD, locus YPL051W, strain arl3, active compounds read low
About 2,000 (36%) of roughly 5,500 compounds were called active. Another 18% or so got no clear call; they are omitted. The list shows a part of the results. *1 amine or outer side, *2 acyl side, *3 side chain or, on linkers, in order; H or OH if unused. Where a SMILES comes first, the peptide text is derived from it. Bridges are numbered along the chain shown (N, C = ends). [ ]: non-standard residue; d: D form. The star is where a group is joined. ξ: configuration not given here. ΔAla(E,3-NHCONH2) = NC(=O)N/C=C(/N)C(=O)O; X2 = NC1=NCCC(C(N[*:1])C(=O)[*:2])N1; ξβ3hOrn = NCCCC(N)CC(=O)*; Dap = NC[CH](N)C(=O)O
property_measured: normalized growth

Take a look at these entries with their results.
- molecule: "CC1(C)C(=O)[C@@H]2C[C@@]3(O)C4=CC(=O)O[C@@H](c5ccoc5)[C@]4(C)CCC3[C@@](C)(C2=O)[C@H]1CC(=O)O (stereo partly specified)"
  val: "1.05 (inactive)"
- molecule: "CN(C)CCc1c[nH]c2ccc(CS(=O)(=O)N3CCCC3)cc12"
  val: "1.02 (inactive)"
- molecule: "NC[C@H]1O[C@H](O[C@H]2C(O[C@@H]3O[C@H](CO)[C@@H](O)[C@H]3O)[C@@H](O)[C@H](N)C[C@@H]2N)[C@H](N)[C@@H](O)[C@@H]1O (stereo partly specified)"
  val: "1.01 (inactive)"
- molecule: "CNS(=O)(=O)Cc1ccc2[nH]cc(CCN(C)C)c2c1"
  val: "1.02 (inactive)"
- molecule: "NC[C@H]1O[C@H](O[C@H]2[C@H](O)[C@@H](O[C@H]3O[C@H](CO)[C@@H](O)[C@H](N)[C@H]3O)[C@H](N)C[C@@H]2N)[C@H](N)C[C@@H]1O"
  val: "0.988 (inactive)"

Prompt line: // lookup normalized growth for NCCCC(N)CC(=O)NCC1NC(=O)C(CO)NC(=O)C(N)CNC(=O)C(C2CCN=C(N)N2)NC(=O)/C(=C\NC(N)=O)NC1=O (stereo not drawn) (H-[Dap]S[Dap](ξβ3hOrn)[ΔAla(E,3-NHCONH2)][X2]; lactam 1-C; configuration not given here)
Response line: 1.01 (inactive)

---

Recorded normalized growth for the following molecules
Experiment: chemical genetic growth profiling, strain panel (AID 1159580);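 note: tested at 20 µM; growth read once vehicle control cultures reached saturation at 30 °C; 1 = growth at the plate median or of vehicle wells; lower values mean less growth of the strain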
Settings: S. cerevisiae deletion strains, growth OD, locus YDL185W, strain tfp1, active compounds read low
In all, about 5,500 compounds went through this assay and about 2,000 (36%) were called active. Another 18% or so got no clear call; they are omitted. This is one part of the list.
Please respond with just the number, no unit label.

- molecule: "O=c1[nH]cnc2c1ncn2C1O[C@H](CO)[C@@H](O)[C@H]1O (stereo partly drawn)"
  normalized growth: 1.04

Prompt line: Consider the molecule `CC(=O)Oc1cccc(C(=O)O)c1OC(C)=O` and give its measured normalized growth.
Response line: 1.02

Prompt line: Can you look up the measured normalized growth of C[C@]12CCC(=O)C=C1CCC1C2C(=O)C[C@@]2(C)C1CC[C@]2(O)C(=O)CO (stereo partly drawn) for me?
Response line: 1.01

Prompt line: Name the recorded normalized growth for `COc1cc(-c2coc3cc(O[C@@H]4O[C@H](CO)[C@@H](O)[C@H](O)[C@H]4O)c(OC)c(O)c3c2=O)cc(O)c1OC` .
Response line: 0.997

Prompt line: Fill in the blank: the reported normalized growth of CN1C(=O)CCS(=O)(=O)C1c1ccc(Cl)cc1 (stereo not drawn) is ____.
Response line: 1.03

Prompt line: Given the molecule `COc1cnc(NS(=O)(=O)c2ccc(N)cc2)nc1` , what is its reported normalized growth?
Response line: 0.962

Prompt line: Request the reported normalized growth associated with C[C@]12CCC(=O)C=C1CCC1C2[C@@H](O)C[C@@]2(C)C1CC[C@]2(O)C(=O)COC(=O)CCC(=O)O (stereo partly drawn)
Response line: 1

Prompt line: Given the entry CC(=O)OCC1=C(C(=O)O)N2C(=O)[C@@H](NC(=O)CCCC(N)C(=O)O)C2SC1 (stereo partly drawn) , report its measured normalized growth.
Response line: 1

Prompt line: Record request: normalized growth value, item OC(c1cc(C(F)(F)F)nc2c(C(F)(F)F)cccc12)C1CCCCN1 (stereo not drawn)
Response line: 0.979

Prompt line: Fill in the blank: the reported normalized growth of `O=C(O)c1cc(=O)c2c(Cl)cc(Cl)cc2[nH]1` is ____.
Response line: 1.01

Prompt line: Look up normalized growth: CO[C@H]1C[C@H](O[C@H]2[C@H](C)[C@@H](OC3O[C@H](C)C[C@H](N(C)C)[C@H]3OC(C)=O)[C@@H](C)C[C@]3(CO3)C(=O)[C@H](C)[C@@H](OC(C)=O)[C@@H](C)[C@@H](C)OC(=O)[C@@H]2C)O[C@@H](C)[C@@H]1OC(C)=O (stereo partly drawn)
Response line: 0.981

Prompt line: Item under review: `CCCc1nc2c(C)cc(-c3nc4ccccc4n3C)cc2n1Cc1ccc(-c2ccccc2C(=O)O)cc1` . Reported normalized growth?
Response line: 1.01

Prompt line: Using the record for `COc1ccc2c(c1OC)OC[C@@H](c1ccc(OC)c(OC)c1OC)C2` , report its normalized growth.
Response line: 1.02

Cited source for all entries: PubChem BioAssay AID1159580
